MEASUREMENT_TARGET: ATX1 AXH (residues A567–K689 of human ATX1) (Homo sapiens, UniProt P54253)
Construct: Recombinant ATX1 AXH (residues A567–K689 of human ATX1); His6-GST (N, cleaved yes); made in house; host or cells: E. coli BL21(DE3)pLysS
Sequence (P54253 566-688 limits assumed): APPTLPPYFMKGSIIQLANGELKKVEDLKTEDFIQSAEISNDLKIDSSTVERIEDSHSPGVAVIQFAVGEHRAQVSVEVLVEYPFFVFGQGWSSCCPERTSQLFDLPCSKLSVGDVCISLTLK
ASSAY_REMARKS: ITC binding of CIC peptides to ATX1 AXH
EXPERIMENTAL_CONDITIONS: 25°C, 50 mM Tris-HCl pH 7, 50 mM NaCl, 2 mM TCEP, 0.041 mM AXH in cell, 0.410 mM peptide in syringe, averages of three measurements, read-out: dissociation constant (Kd)
Peptide text beside a SMILES is read from it.
Answer each item with its documented pKd.
Remember the convention: pKd equals -log10 of concentration in molar.

If you can, please state the reported pKd value of CC(C)C[C@H](NC(=O)[C@H](C)NC(=O)[C@H](Cc1c[nH]cn1)NC(=O)[C@H](Cc1c[nH]c2ccccc12)NC(=O)[C@@H]1CCCN1C(=O)[C@H](Cc1ccccc1)NC(=O)[C@@H](N)C(C)C)C(=O)N[C@H](C(=O)N1CCC[C@H]1C(=O)N[C@@H](Cc1ccccc1)C(=O)N[C@@H](CC(C)C)C(=O)N[C@@H](C)C(=O)N1CCC[C@H]1C(=O)N[C@@H](CO)C(=O)N[C@@H](CCC(N)=O)C(=O)O)C(C)C [S39] (H-VFPWHALVPFLAPSQ-OH) .
8.00

Query (molecule): CC(C)C[C@H](NC(=O)[C@H](Cc1ccccc1)NC(=O)[C@@H]1CCCN1C(=O)[C@@H](NC(=O)[C@H](CC(C)C)NC(=O)[C@H](CO)NC(=O)[C@H](Cc1c[nH]cn1)NC(=O)[C@H](Cc1c[nH]c2ccccc12)NC(=O)[C@H](C)NC(=O)[C@H](Cc1ccccc1)NC(=O)[C@@H](N)C(C)C)C(C)C)C(=O)N[C@@H](C)C(=O)N1CCC[C@H]1C(=O)N[C@@H](CO)C(=O)N[C@@H](CCC(N)=O)C(=O)O [P36] (H-VFAWHSLVPFLAPSQ-OH) ; field requested: pKd
7.40

Requested field: pKd. Item: CC(C)C[C@H](NC(=O)[C@H](Cc1ccccc1)NC(=O)[C@@H]1CCCN1C(=O)[C@@H](NC(=O)[C@H](CC(C)C)NC(=O)[C@H](CO)NC(=O)[C@H](C)NC(=O)[C@H](Cc1c[nH]c2ccccc12)NC(=O)[C@@H]1CCCN1C(=O)[C@H](Cc1ccccc1)NC(=O)[C@@H](N)C(C)C)C(C)C)C(=O)N[C@@H](C)C(=O)N1CCC[C@H]1C(=O)N[C@@H](CO)C(=O)N[C@@H](CCC(N)=O)C(=O)O [H38] (H-VFPWASLVPFLAPSQ-OH)
7.30

Item CC(C)C[C@H](NC(=O)[C@H](Cc1ccccc1)NC(=O)[C@@H]1CCCN1C(=O)[C@@H](NC(=O)[C@H](CC(C)C)NC(=O)[C@H](CO)NC(=O)[C@H](Cc1c[nH]cn1)NC(=O)[C@H](Cc1c[nH]c2ccccc12)NC(=O)[C@@H]1CCCN1C(=O)[C@H](Cc1ccccc1)NC(=O)[C@@H](N)C(C)C)C(C)C)C(=O)N[C@@H](C)C(=O)N[C@@H](C)C(=O)N[C@@H](CO)C(=O)N[C@@H](CCC(N)=O)C(=O)O [P46] (H-VFPWHSLVPFLAASQ-OH) has what recorded pKd?
7.70

Reported pKd, molecule CC(C)C[C@H](NC(=O)[C@H](Cc1ccccc1)NC(=O)[C@@H]1CCCN1C(=O)[C@@H](NC(=O)[C@H](CC(C)C)NC(=O)[C@H](CO)NC(=O)[C@H](Cc1c[nH]cn1)NC(=O)[C@H](Cc1c[nH]c2ccccc12)NC(=O)[C@@H]1CCCN1C(=O)[C@H](Cc1ccccc1)NC(=O)[C@@H](N)C(C)C)C(C)C)C(=O)NCC(=O)N1CCC[C@H]1C(=O)N[C@@H](CO)C(=O)N[C@@H](CCC(N)=O)C(=O)O [A45] (H-VFPWHSLVPFLGPSQ-OH) : ____
7.70
